Biological target: pooled human IgG (human IgG1,2,3 and 4)
Items are presented alongside their recorded Enzyme Activity Endpoint Assay: IgG.
Please reply with the bare figure in ng/µL and do not write the unit itself.

{"protein": "PRT-502 (protein) MITSVWTKGVTPPTDFIKGEDVFHAPYKAGQGWYDITKAFDGGDDLLCGAATAGNMLHWWFDQNKEYIEAYLKKHPEKQKIMFGDQELLDVRKAINTKGSQKNSELFNYFRDKAFPNLSARRLGVMPDLVLDMFINGYYLNVTKTQTTDVNRQEQEKDKRGGIFDAVFGRGDQTKLLTSRHDFKEKGLNEISQLIKQELTEGKALGLSHTYANVRINHVINLWGADFDADGNLEAIYVTDSDSNASIGMKKYFVGVNSAGKVAISAKEIKEDNIGAQVLGLFTLSTGQKIWNKTNLEHHHHHH", "resultNumber": 66}

Please look at the following protein next.
Report Enzyme Activity Endpoint Assay: IgG for PRT-259 (protein) MVTSVWTKGVTPPTNFTYGEDVLHAPYVANQGWYDITKTFNGKDNLLCGAATAGNMLHWWFDQNKEQIENYLKKHPEKQKINFNGEQLFDVKEAIDTKDSQLDSKLFEYFKEKAFPNLSTKHLGVFPDHVIDMFINGYRLSLLNHGPTPVKRGSKDKRGGIFDAVFTRGVQSKLLTNRHDFKEKTLKEISDLIKQELTEGKALGISHTYANVRINHVINLWGADFDAEGNLEAIYVTDSDTNASIGMKKYFVGVNSSGKVAISAKEIEEDNIGAQVLGLFTLSTGQDIWNQTN please.
0
